Test system: MDA-MB-231
Assay protocol: NCI tumour cell line growth inhibition, 48 h
Active and inactive are the calls of the source. Cut-off read from the data, not from the text of the source: active = GI50 up to about 1.1 µM and inactive = higher.
Outcome codes: T = active, F = inactive

Compound	Category
CC(=O)OCC1OC(N2C(C)=C(C(C)=O)C(c3ccco3)C(C#N)=C2S)C(OC(C)=O)C(OC(C)=O)C1OC(C)=O (stereo not drawn)	F
C[C@]12CCC3C4=C(CCC3C1CCC2=O)C(=O)[C@H]1O[C@H]1C4=O (stereo partly drawn)	F
N#Cc1c(-c2ccc(Cl)cc2)c(C#N)c(=O)n(NS(=O)(=O)c2ccccc2)c1-c1ccccc1	F
O=C(O)CNc1ccc2c(c1)Cc1cc(Br)ccc1-2	F
COc1cc([C@@H]2c3cc4c(cc3[C@@H](Nc3ccc([N+](=O)[O-])cc3C(=O)c3ccccc3)[C@H]3COC(=O)[C@H]23)OCO4)cc(OC)c1OC	T
COc1cc2c3cc1Oc1cc(ccc1O)C[C@@H]1c4c(cc(OC)c(O)c4Oc4ccc(cc4)C[C@@H]3N(C)CC2)CC[N+]1(C)C	F
C\C(=N/N=C1/C(=C\N(C)C)C(=O)NC(=O)N1C)c1ccc(Cl)cc1	F
CCC1OC2C(CC=C(C)C)=C3OC(C)(O)C(C)(CC)C(O)C3=C3OC(=O)C=C1C32 (stereo not drawn)	F
Nn1c(S)nnc1CCCCCCCCc1nnc(S)n1N	F
N=c1c2c(=S)n(-c3ccccc3)c(=S)n(-c3ccccc3)c2nc(SCCN2CCCC2)n1-c1ccccc1	F
CCCCC(C)(C/C=C/[C@@H]1[C@@H](C(O)CCCCCC(=O)OC)C(=O)C[C@H]1O[Si](C)(C)C(C)(C)C)O[Si](C)(C)C (stereo partly drawn)	F
O=S(=O)(O)c1cc(S(=O)(=O)O)c2c(/N=N/c3cccc4ccccc34)c(O)ccc2c1	F
O=c1oc2ccc(Cl)cc2c2ccccc12	F
O=C1/C(=C(/Br)I)c2ccccc2-c2ccccc21	F
CC(C)CCC[C@@H](C)C1CCC2[C@@H]3CCC4CC(CCC=C(c5cc(Cl)c(OC(=O)c6ccccc6)c(C(=O)O)c5)c5cc(Cl)c(OC(=O)c6ccccc6)c(C(=O)O)c5)CC[C@]4(C)C3CC[C@@]21C (stereo partly drawn)	F
CC1=CC(=O)C(C(O)(C(F)(F)F)C(F)(F)F)C(C)(C)C1 (stereo not drawn)	F
Cc1ccc2c(c1)nc1n2C(N)=Nc2ccccc2S1	F
O=C(O)[C@H](Cc1ccccc1)NCCN1CCC[C@H]1C(=O)O	F

* * *

Tested on: SW-620
Assay protocol: NCI tumour cell line growth inhibition, 48 h
The source made the active and inactive calls. Cut-off read from the data, not from the text of the source: active = GI50 up to about 1.1 µM and inactive = higher.
Outcome codes: label 1 (active), label 0 (inactive)

Compound	Category
O=[N+]([O-])c1ccc(/C(=N/c2ccccc2)SS/C(=N\c2ccccc2)c2ccc([N+](=O)[O-])o2)o1	label 1
CN1CC[N+](C)=C1c1ccccc1	label 0
CCOC(=O)/C(C(=O)Nc1ccc(F)cc1)=C(/N)N1CCOCC1	label 0
O=C(CC1(O)C(=O)Nc2c(Cl)cc(Cl)cc21)c1ccc2ccccc2c1 (centres undefined)	label 0
CO[C@H]1/C=C/O[C@@]2(C)Oc3c(C)c(O)c4c(O)c(c(/C=N/N5CCN(C)CC5)c(O)c4c3C2=O)NC(=O)/C(C)=C\C=C\[C@H](C)[C@H](O)[C@@H](C)[C@@H](O)[C@@H](C)[C@H](OC(C)=O)[C@@H]1C	label 0
O=C1NCCCNCCCNCCCNC(=O)c2cccc1n2	label 0
O=C(NC(CS)C(=O)O)c1c2ccccc2nc2ccccc12 (centres undefined)	label 0
COc1cccc(N2C(=O)CS(=O)(=O)C2c2cccc(Oc3ccccc3)c2)c1 (centres undefined)	label 0
COC(=O)C(=O)C(C(=O)C(=O)Nc1cc(Cl)c(Cl)cc1Cl)c1nc2ccc([N+](=O)[O-])cc2nc1O (centres undefined)	label 0

* * *

Test system: NCI-H460
Assay protocol: NCI tumour cell line growth inhibition, 48 h
Active and inactive are the calls of the source. Cut-off read from the data, not from the text of the source: active = GI50 up to about 1.1 µM and inactive = higher.
Recorded metric: GI50

> print(dat)
                                    compound               result
 1  COC(=O)C1(C(=O)OC)CC2=C(S(=O)(=O)c3ccccc3)C[C@@H](C#N)[C@H]2C1   91.4 µM (inactive)
 2  O=[N+]([O-])c1ccc(/C=N/n2c(CO)nc3ccccc32)o1   3.29 µM (inactive)
 3  CCOC(=O)C1N(S(=O)(=O)c2ccc(C)cc2)CCC12C(c1ccc(OC)c(OC)c1)=Nc1ccccc12 (stereo not given)  > 100 µM (inactive)
 4                        CNC(=S)NC(=S)N(C)C   2.71 µM (inactive)
 5  NCCCCNCCCNC(=O)CNC(=O)CC(O)C(N)CCCC(NC(=O)C(CN)NC(=O)C(O)CNC(=O)CC(N)c1ccc(O)cc1)C(=O)O (stereo not given)   > 10 µM (inactive)
 6  O=C(Nc1ccc(Cl)cc1)Oc1ccc(C(=S)Nc2ccc(Br)cc2)cc1   4.85 µM (inactive)
 7  COc1ccc(/C=N/n2cnc3c(sc(=S)n3-c3ccccc3)c2=O)cc1   35.8 µM (inactive)
 8  CC1=CC23C(COC(=O)C24CO4)C(C(=O)O)=CC3C1C (stereo not given)   18.2 µM (inactive)
 9  COc1c(C)c(C/C=C(\C)CCCCO[Si](C(C)C)(C(C)C)C(C)C)c(OC)c2ccccc12  > 100 µM (inactive)
10     CCOP(=O)(OCC)/C(C#N)=C/c1ccnc2ccccc12   43.6 µM (inactive)

* * *

System: SK-OV-3
Assay protocol: NCI tumour cell line growth inhibition, 48 h
Active and inactive are the calls of the source. No stated cut-off is given here; in the data, active = GI50 up to about 1.1 µM and inactive = higher.
Outcome codes: yes (1) for active, no (0) for inactive

> print(dat)
                                   compound  target.or.test.system  category
1  CC(=O)c1cccc(NC2C(N)C(NC(=O)N(C)C)(C(C)O)C(C)(O)C2(O)COC(=O)c2c(C)cccc2O)c1 (stereo not drawn)                SK-OV-3   yes (1)
2  Cc1cc(C)nc(NS(=O)(=O)c2ccc(NC(=O)c3ccc(Cl)c4c(Nc5ccc(S(=O)(=O)N=C(N)N)cc5)c5ccccc5nc34)cc2)n1                SK-OV-3    no (0)
3  CC(C)Cc1ccc(C(C)/C=C2\CCC(CN3CCCC3)C2=O)cc1 (stereo not drawn)                SK-OV-3    no (0)
4  O=[N+]([O-])c1ccc(/C(=N/c2ccccc2)SS/C(=N\c2ccccc2)c2ccc([N+](=O)[O-])o2)o1                SK-OV-3    no (0)
5  CCCCCCCCCCCCN(CC(O)C(O)C(OC1OC(CO)C(O)C(O)C1O)C(O)CO)C(=O)CCCCCCCCCCC (stereo not drawn)                SK-OV-3    no (0)
6  N#Cc1ccccc1NC(=O)/C(=N\N)C(C(=O)c1ccncc1)C1OC(=O)c2ccccc21 (stereo not drawn)                SK-OV-3    no (0)
7  C=C(COC(C)=O)CC(/C=C(\C)CC/C=C(\C)CO)OC(C)=O (stereo not drawn)                SK-OV-3    no (0)
8  Cn1cnc([N+](=O)[O-])c1Sc1nccn1-c1cccc2ccccc12                SK-OV-3    no (0)

* * *

Test system: HOP-92
Assay protocol: NCI tumour cell line growth inhibition, 48 h
Calls of active or inactive are those of the source. Cut-off read from the data, not from the text of the source: active = GI50 up to about 1.1 µM and inactive = higher.
Recorded metric: GI50

> print(dat)
                                    compound                result
 1  O=[N+]([O-])c1ccc(-c2ccc([C@H]3CC(c4cc(F)c(Cl)cc4Cl)=NN3)o2)cc1    26.6 µM (inactive)
 2  COc1cc([C@@H]2c3cc4c(cc3[C@@H](Nc3ccc([N+](=O)[O-])cc3C(=O)c3ccccc3)[C@H]3COC(=O)[C@H]23)OCO4)cc(OC)c1OC    8.05 µM (inactive)
 3  CC(C)(C)c1cc([N+](=O)[O-])cc([N+](=O)[O-])c1O    2.77 µM (inactive)
 4  COc1ccc(C2NC(=O)Nc3c2c(=O)oc2c3ccc3ccccc32)cc1 (stereo not given)    35.2 µM (inactive)
 5  N#Cc1ccccc1NC(=O)/C(=N\N)C(C(=O)c1ccncc1)C1OC(=O)c2ccccc21 (stereo not given)   > 100 µM (inactive)
 6         Cc1ccc2c(c1)nc1n2C(N)=Nc2ccccc2S1  > 40.6 µM (inactive)
 7  O=C1/C(=C/c2cccc([N+](=O)[O-])c2)Cc2ccccc21    75.3 µM (inactive)
 8  CN(CC#N)C1CCCC[C@H]1O (stereo not given in full)   > 100 µM (inactive)
 9  CCOC(=O)C1=C(C)NC(=O)NC1c1coc2cc(C)cc(C)c2c1=O (stereo not given)  > 74.3 µM (inactive)
10           O=C(O)Cc1cccc2c(=O)c3ccccc3oc12   > 100 µM (inactive)

Attribution: ChEMBL document CHEMBL1201862
